Origin of values: patent US11390606B2

This listing pairs compounds with measured IC50.
TARGET UNDER TEST: skeletal myofibrils (Rabbit Psoas), myosin ATPase activity
Construct: Rabbit Psoas Prep 11 (0.25 mg/mL)
METHOD DESCRIPTION: Skeletal Myofibril ATPase Assay
PROTOCOL CONDITIONS: skeletal myofibrils (Rabbit Psoas 0.25 mg/mL), PK/LDH-coupled NADH absorbance at 340 nm
MEASURE: IC50

{"COMPOUND": "O=c1ccc(-c2ccc(OC(F)F)nc2)nn1Cc1ccc(Cl)cc1 [Compound 19]", "VALUE OBSERVED": "< 10 µM"}
{"COMPOUND": "CN(C)S(=O)(=O)c1ccc(Cn2nc(-c3ccc(OC(F)F)cc3)ccc2=O)cc1 [Compound 118]", "VALUE OBSERVED": "> 100 µM"}
{"COMPOUND": "COc1cc(F)ccc1-c1ccc(=O)n(Cc2ccc(Cl)cc2)n1 [Compound 316]", "VALUE OBSERVED": "> 100 µM"}
{"COMPOUND": "O=c1ccc(-c2ccc(Cl)cc2)nn1Cc1cccc(F)c1 [Compound 317]", "VALUE OBSERVED": "< 10 µM"}
{"COMPOUND": "O=c1ccc(-c2ccc(F)cc2)nn1Cc1ccccc1F [Compound 243]", "VALUE OBSERVED": "10 to 100 µM"}
{"COMPOUND": "[2H]C([2H])(c1ccccc1)n1nc(-c2cnc(OCC(F)(F)F)nc2)ccc1=O [Compound 52]", "VALUE OBSERVED": "< 10 µM"}
{"COMPOUND": "O=c1ccc(-c2cnc(OCC(F)(F)F)nc2)nn1C1(c2ccccc2)CC1 [Compound 54]", "VALUE OBSERVED": "< 10 µM"}
{"COMPOUND": "O=c1ccc(-c2cnc(OCC(F)(F)F)nc2)nn1Cc1cc(Cl)ccc1O [Compound 50]", "VALUE OBSERVED": "< 10 µM"}
{"COMPOUND": "O=c1ccc(-c2ccc(OC(F)(F)F)nc2)nn1Cc1ccc(Cl)cc1 [Compound 13]", "VALUE OBSERVED": "< 10 µM"}
{"COMPOUND": "CN1CCC(F)(COc2ccc(-c3ccc(=O)n(Cc4ccc(Cl)cc4)n3)cn2)CC1 [Compound 28]", "VALUE OBSERVED": "> 100 µM"}
{"COMPOUND": "O=c1ccc(-c2cnc(OCC(F)(F)F)nc2)nn1Cc1c(F)cccc1F [Compound 41]", "VALUE OBSERVED": "< 10 µM"}
{"COMPOUND": "O=c1ccc(-c2ccc(OC(F)(F)F)cc2)nn1Cc1ccc(Cl)cc1 [Compound 105]", "VALUE OBSERVED": "< 10 µM"}
{"COMPOUND": "CC1(C)Cc2cc(-c3ccc(=O)n(Cc4ccc(Cl)cc4)n3)ccc2O1 [Compound 115]", "VALUE OBSERVED": "> 100 µM"}
{"COMPOUND": "O=c1ccc(-c2ccc(OCC(F)(F)F)nc2)nn1Cc1ccc(Cl)cc1 [Compound 11]", "VALUE OBSERVED": "< 10 µM"}
